Hey, just so you know, these numbers are from PubChem BioAssay (NCI).

Test system: SNB-75 CNS
ASSAY_PROTOCOL: NCI tumour cell line growth inhibition, 48 h; in the data active = GI50 below about 0.43 µM; inactive = the rest
Possible outcomes: Yes = active, No = inactive

>  <COMPOUND>
COc1ccc(-n2c(=O)c3ccccc3n(Cc3ccc(C(=O)NO)cc3)c2=O)cc1

>  <TARGET_OF_ASSAY>
SNB-75 CNS

>  <ASSIGNED_LABEL>
No

$$$$
>  <COMPOUND>
COc1ccc([C@@H]2[C@@H](Oc3ccccc3)C(=O)N2c2cc(OC)c(OC)c(OC)c2)cc1F

>  <TARGET_OF_ASSAY>
SNB-75 CNS

>  <ASSIGNED_LABEL>
Yes

$$$$
>  <COMPOUND>
CC(=O)O[C@H]1C[C@@H]2[C@@]3(C)CC[C@H]4C[C@@]4(C)[C@@H]3CC[C@@]2(C)C2=CCC3=C(COC3=O)[C@]21C

>  <TARGET_OF_ASSAY>
SNB-75 CNS

>  <ASSIGNED_LABEL>
No

$$$$
>  <COMPOUND>
CN1CCN(C(=O)/C=C/c2ccc([N+](=O)[O-])o2)CC1

>  <TARGET_OF_ASSAY>
SNB-75 CNS

>  <ASSIGNED_LABEL>
No

$$$$
>  <COMPOUND>
COc1cc2c3c(n(CCCN)c(=O)c2cc1OC)-c1ccc(N)cc1C3=O

>  <TARGET_OF_ASSAY>
SNB-75 CNS

>  <ASSIGNED_LABEL>
No

$$$$
>  <COMPOUND>
CN(C)CCCC1(c2ccc(F)cc2)OCc2cc(-c3csc4ccccc34)ccc21 (configuration not stated)

>  <TARGET_OF_ASSAY>
SNB-75 CNS

>  <ASSIGNED_LABEL>
No

$$$$
>  <COMPOUND>
OCc1ccc(N2CCc3ccc(F)cc3C2)cc1Cl

>  <TARGET_OF_ASSAY>
SNB-75 CNS

>  <ASSIGNED_LABEL>
No

$$$$
>  <COMPOUND>
O=C(O)c1cn(C2CC2)c2cc(N3CCN(C(=O)N(c4ccccc4)c4nc(-c5ccccc5)cs4)CC3)c(F)cc2c1=O

>  <TARGET_OF_ASSAY>
SNB-75 CNS

>  <ASSIGNED_LABEL>
Yes

$$$$
>  <COMPOUND>
COc1cc(/C=C/c2cc(/C=C/c3ccc(O)c(OC)c3)n(C(=O)Nc3ccc(C)cc3)n2)ccc1O

>  <TARGET_OF_ASSAY>
SNB-75 CNS

>  <ASSIGNED_LABEL>
Yes

$$$$
>  <COMPOUND>
O=C1NC(=O)C2C3C=CC(C12)C1C2C(=O)NC(=O)C2C31 (configuration not stated)

>  <TARGET_OF_ASSAY>
SNB-75 CNS

>  <ASSIGNED_LABEL>
No

$$$$
>  <COMPOUND>
COc1ccccc1CNCCCN1C(=O)c2ccc3c4c(ccc(c24)C1=O)C(=O)N(CCCNCc1ccccc1OC)C3=O

>  <TARGET_OF_ASSAY>
SNB-75 CNS

>  <ASSIGNED_LABEL>
Yes

$$$$
>  <COMPOUND>
CNCc1cccc2c1OCCOCCOCCNS(=O)(=O)c1ccc(cc1)-c1cnc(N)c(n1)C(=O)N2

>  <TARGET_OF_ASSAY>
SNB-75 CNS

>  <ASSIGNED_LABEL>
Yes

$$$$
>  <COMPOUND>
O=S(=O)(Nc1ccccc1)c1ccc(C2CC3(Cl)C(Cl)=C(Cl)C2(Cl)C3(Cl)Cl)cc1 (configuration not stated)

>  <TARGET_OF_ASSAY>
SNB-75 CNS

>  <ASSIGNED_LABEL>
No

$$$$
>  <COMPOUND>
O=C(CCN1CCOCC1)Nc1ccc(Cn2nnc3c2C(=O)c2nnn(Cc4ccc(NC(=O)CCN5CCOCC5)cc4)c2C3=O)cc1

>  <TARGET_OF_ASSAY>
SNB-75 CNS

>  <ASSIGNED_LABEL>
No

$$$$
>  <COMPOUND>
O=[N+]([O-])c1ccc(N/N=C\c2cc(Br)ccc2O)nc1

>  <TARGET_OF_ASSAY>
SNB-75 CNS

>  <ASSIGNED_LABEL>
No

$$$$
>  <COMPOUND>
COc1cc(NC(=O)COc2ccccc2)c(C(N)=O)cc1OC

>  <TARGET_OF_ASSAY>
SNB-75 CNS

>  <ASSIGNED_LABEL>
No

$$$$
>  <COMPOUND>
CC[C@]12C=CCN3CC[C@@]4(c5ccc(OC)cc5N(C)[C@H]4[C@@](O)(C(=O)OC)[C@@H]1OC(=O)CCCN1CCN(CCCC(=O)O[C@@H]4[C@]5(CC)C=CCN6CC[C@@]7(c8ccc(OC)cc8N(C)[C@H]7[C@@]4(O)C(=O)OC)[C@@H]65)CC1)[C@@H]32

>  <TARGET_OF_ASSAY>
SNB-75 CNS

>  <ASSIGNED_LABEL>
No

$$$$
